% Rmax hCD32b: recorded values
Target: T1, CD32b (FcgRIIb) (Homo sapiens, UniProt P31994)
T1 sequence (P31994 43-310): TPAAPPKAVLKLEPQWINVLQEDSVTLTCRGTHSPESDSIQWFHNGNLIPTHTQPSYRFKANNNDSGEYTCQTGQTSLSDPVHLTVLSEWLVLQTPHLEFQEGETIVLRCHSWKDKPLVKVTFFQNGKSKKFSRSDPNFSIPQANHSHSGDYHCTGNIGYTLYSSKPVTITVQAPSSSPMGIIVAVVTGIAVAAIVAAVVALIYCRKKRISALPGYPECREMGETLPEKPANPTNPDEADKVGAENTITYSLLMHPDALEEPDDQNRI
Assay: SPR, antibody binding to anti-his Fab captured FcgR-his (% Rmax)
Conditions: 1 μM antibody
I only need the number, in %, no unit after it.

Reference set (3 entries):
* mAb5-IgG2.5 (protein, left off: another chain or arm of the molecule) constant: ASTKGPSVFPLAPSSRSTSESTAALGCLVKDYFPEPVTVSWNSGALTSGVHTFPAVLQSSGLYSLSSVVTVPSSNFGTQTYTCNVDHKPSNTKVDKTVERKCCVECPPCPAPPVAGPSVFLFPPKPKDTLMISRTPEVTCVVVDVSHEDPEVQFNWYVDGVEVHNAKTKPREEQFNSTFRVVSVLTVVHQDWLNGKEYKCKVSNKGLPAPIEKTISKTKGQPREPQVYTLPPSREEMTKNQVSLTCLVKGFYPSDIAVEWESNGQPENNYKTTPPMLDSDGSFFLYSKLTVDKSRWQQGNVFSCSVMHEALHNHYTQKSLSLSPGK | 5
* mAb13-IgG2.3 (protein, left off: another chain or arm of the molecule) constant: ASTKGPSVFPLAPCSRSTSESTAALGCLVKDYFPEPVTVSWNSGALTSGVHTFPAVLQSSGLYSLSSVVTVPSSNFGTQTYTCNVDHKPSNTKVDKTVERKSCVECPPCPAPPVAGPSVFLFPPKPKDTLMISRTPEVTCVVVDVSHEDPEVQFNWYVDGVEVHNAKTKPREEQFNSTFRVVSVLTVVHQDWLNGKEYKCKVSNKGLPAPIEKTISKTKGQPREPQVYTLPPSREEMTKNQVSLTCLVKGFYPSDIAVEWESNGQPENNYKTTPPMLDSDGSFFLYSKLTVDKSRWQQGNVFSCSVMHEALHNHYTQKSLSLSPGK | 1
* mAb8-IgG2.5 (protein, left off: another chain or arm of the molecule) constant: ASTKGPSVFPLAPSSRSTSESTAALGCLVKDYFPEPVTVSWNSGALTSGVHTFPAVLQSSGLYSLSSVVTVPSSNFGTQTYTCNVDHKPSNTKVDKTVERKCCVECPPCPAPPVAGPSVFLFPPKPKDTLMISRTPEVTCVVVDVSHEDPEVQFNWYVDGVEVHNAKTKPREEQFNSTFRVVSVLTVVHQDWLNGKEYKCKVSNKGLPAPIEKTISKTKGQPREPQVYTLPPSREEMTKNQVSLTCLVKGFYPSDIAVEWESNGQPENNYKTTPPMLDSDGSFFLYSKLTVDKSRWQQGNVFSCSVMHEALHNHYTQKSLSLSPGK | 3

Okay, now this molecule:
Request: Please look up its % Rmax hCD32b: mAb8-IgG2.3G1-AY-V27 (protein, left off: another chain or arm of the molecule) constant: ASTKGPSVFPLAPCSRSTSESTAALGCLVKDYFPEPVTVSWNSGALTSGVHTFPAVLQSSGLYSLSSVVTVPSSNFGTQTYTCNVDHKPSNTKVDKTVERKSCVECPPCPAPELLGGPSVFLFPPKPKDTLMISRTPEVTCVVVDVEHEDPEVKFNWYVDGVEVHNAKTKPREEQYNSTYRVVSVLTVLHQDWLNGKEYKCKVSNKALPAPIEKTISKAKGQPREPQVYTLPPSREEMTKNQVSLTCLVKGFYPSDIAVEWESNGQPENNYKTTPPVLDSDGSFFLYSKLTVDKSRWQQGNVFSCSVMHEALHNHYTQKSLSLSPGK
Response: 67
